Target: benzodiazepine receptor
Test: Displacement ability for benzodiazepine receptor (displacement of tritiated diazepam)
Details: displacement of tritiated diazepam (2 nM), rat cerebral cortex synaptosomal fraction, pH 7.4, 0° C., 20 minutes; read-out: binding for benzodiazepine Ki
readout-kind: Ki (nM)

compound	readout-kind	obs-value
O=C1CC2CSc3ccccc3C2=NN1c1ccc(Br)cc1 (stereo not shown) [Example 13]	Ki	45
Cc1ccc(N2N=C3c4ccccc4SCC3CC2=O)cc1 (stereo not shown) [Example 9]	Ki	12
O=C1CC2CSc3ccccc3C2=NN1c1ccc(Cl)cc1 (stereo not shown) [Example 1]	Ki	40
COc1ccc(N2N=C3c4ccccc4SCC3CC2=O)cc1 (stereo not shown) [Example 10]	Ki	13
